system: mdr1a; assay: PXR target gene expression in C57BL/6 mice after FKK6 gavage; format: in vivo, mouse; conditions: both sexes, C57BL/6J, mouse, liver, oral, 500 μM, 5 doses (60 h), individual mice; read-out: mdr1a fold induction, Liver
parameter_measured: fold induction at 60 h, 500 µM
Write no unit; give the number alone.

Requested read-out: fold induction at 60 h, 500 µM. Entry: C#CCC(O)(c1ccncc1)c1cc2ccccc2n1S(=O)(=O)c1ccccc1 (stereo not shown) [FKK6]
3.05

====

Target: UniProt O75469
Sequence (O75469 1-434): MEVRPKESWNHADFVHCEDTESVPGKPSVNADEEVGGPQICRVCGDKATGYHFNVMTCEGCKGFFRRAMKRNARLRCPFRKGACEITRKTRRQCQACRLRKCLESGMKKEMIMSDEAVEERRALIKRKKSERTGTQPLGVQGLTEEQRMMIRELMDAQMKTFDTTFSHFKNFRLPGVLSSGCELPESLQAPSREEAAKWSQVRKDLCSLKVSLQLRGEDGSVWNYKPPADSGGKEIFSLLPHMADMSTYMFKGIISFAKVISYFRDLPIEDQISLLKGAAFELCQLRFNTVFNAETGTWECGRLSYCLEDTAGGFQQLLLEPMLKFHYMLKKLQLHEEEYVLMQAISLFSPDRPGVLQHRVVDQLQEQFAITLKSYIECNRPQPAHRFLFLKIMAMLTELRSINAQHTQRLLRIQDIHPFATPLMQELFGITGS
Assay: PXR reporter (p3A4-luc luciferase) assay in LS180 cells transiently transfected with wild-type PXR
Settings: 10 nM
Parameter: aver (mean luciferase signal of H1-H4). Scope: all listed entries.
Lab note: jot the number down without any unit.

Completed entries (count: 2):
O=S(=O)(c1ccccc1)n1c(C(O)c2ccncc2)cc2ccccc21 (racemic) [FKK1]: 3768.8
C#CCC(O)(c1ccncc1)c1cc2ccccc2n1S(=O)(=O)c1ccccc1 (stereo not drawn) [FKK6]: 9322.0

Provide value of aver (mean luciferase signal of H1-H4) for this record tested with UniProt O75469: CC#CC(O)(c1ccncc1)c1cc2ccccc2n1COCC (stereo not drawn) [FKK4]
4279.3

====

target: PXR (Homo sapiens, UniProt O75469); test: PXR reporter (p3A4-luc luciferase) assay in LS180 cells transiently transfected with wild-type PXR; details: 10 uM, 24 h, over UT
Below is a list of entries, each paired with its recorded FOLD INDUCTION of PXR reporter luciferase activity value.
Kindly provide the numeric value in fold only, without the unit symbol.

Previously resolved entries follow.
O=S(=O)(c1ccccc1)n1c(C(O)(Cc2cc3ccccc3[nH]2)c2ccncc2)cc2ccccc21 (racemic): 22.1
CCOCn1c(C(O)(Cc2cc3ccccc3[nH]2)c2ccncc2)cc2ccccc21 (racemic): 25.8
CC#CC(O)(c1ccncc1)c1cc2ccccc2n1S(=O)(=O)c1ccccc1 (racemic): 30.5

API: value(readout=FOLD INDUCTION of PXR reporter luciferase activity, system=PXR (Homo sapiens, UniProt O75469)) for record "OC(c1ccncc1)(c1cc2ccccc2[nH]1)c1cc2ccccc2[nH]1"
19.4

====

system: mdr1; experiment: PXR target gene expression in hPXR mice (mice expressing the human PXR gene) after FKK6 gavage; type: in vivo, mouse; conditions: both sexes, C57BL/6-Nr1i2tm1(NR1I2)Arte (hPXR mice), mouse, in vivo, 500 μM, 5 doses (60 h), individual mice; read-out: mdr1 fold induction, Large Intestine
parameter_measured: fold induction at 60 h, 500 µM
// print number alone

fold induction at 60 h, 500 µM lookup needed for C#CCC(O)(c1ccncc1)c1cc2ccccc2n1S(=O)(=O)c1ccccc1 (stereo not shown) , thanks.
1.85

====

Overview of recorded FOLD INDUCTION (AZ-AHR luciferase) for various compounds
Target: AhR (Homo sapiens)
Construct: endogenous in cells; host or cells: AZ-AHR (HepG2)
Sequence (P35869 11-848): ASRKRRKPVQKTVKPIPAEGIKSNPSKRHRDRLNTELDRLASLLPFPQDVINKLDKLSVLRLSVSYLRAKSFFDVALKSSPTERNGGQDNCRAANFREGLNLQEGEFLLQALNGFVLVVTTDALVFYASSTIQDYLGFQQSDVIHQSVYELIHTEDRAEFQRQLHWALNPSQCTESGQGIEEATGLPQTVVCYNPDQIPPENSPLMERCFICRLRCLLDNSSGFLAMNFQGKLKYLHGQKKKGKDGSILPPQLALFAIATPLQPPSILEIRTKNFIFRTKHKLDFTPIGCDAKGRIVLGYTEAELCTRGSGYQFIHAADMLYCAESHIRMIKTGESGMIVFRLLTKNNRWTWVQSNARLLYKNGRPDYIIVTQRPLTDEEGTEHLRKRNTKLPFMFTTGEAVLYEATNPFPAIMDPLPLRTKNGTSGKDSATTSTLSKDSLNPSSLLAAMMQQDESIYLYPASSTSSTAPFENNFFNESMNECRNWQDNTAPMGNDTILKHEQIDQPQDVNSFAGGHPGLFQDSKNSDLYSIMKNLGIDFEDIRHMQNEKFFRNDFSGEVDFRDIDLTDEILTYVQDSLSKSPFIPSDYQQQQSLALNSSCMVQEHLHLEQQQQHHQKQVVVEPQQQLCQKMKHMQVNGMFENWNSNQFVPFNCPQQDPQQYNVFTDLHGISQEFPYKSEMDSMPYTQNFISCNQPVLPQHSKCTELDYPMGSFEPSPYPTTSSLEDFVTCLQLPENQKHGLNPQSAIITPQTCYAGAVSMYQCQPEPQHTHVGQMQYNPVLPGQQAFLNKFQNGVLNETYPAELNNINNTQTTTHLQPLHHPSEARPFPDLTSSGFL
Experiment: AhR reporter assay, HepG2 cells stably expressing pCYP1A1 luciferase (AZ-AHR)
Assay type: cell-based
Details: AZ-AHR cells, 1µM, fold vs DMSO
Procedure: Incubations were performed in four technical replicates.
Give the value in fold but do not write fold after it.

// below: answered compounds
O=S(=O)(c1ccccc1)n1c(C(O)(Cc2cc3ccccc3[nH]2)c2ccncc2)cc2ccccc21 (racemic): 3.6
OC(c1ccncc1)(c1cc2ccccc2[nH]1)c1cc2ccccc2[nH]1: 15.0

In the following, a different compound is considered.
// FOLD INDUCTION (AZ-AHR luciferase) lookup, key: CC#CC(O)(c1ccncc1)c1cc2ccccc2n1S(=O)(=O)c1ccccc1 (racemic)
1.1

====

FOLD INDUCTION (AZ-AHR luciferase) overview
molecular target: AhR (Homo sapiens); construct: endogenous in cells; host or cells: AZ-AHR (HepG2); assay: AhR reporter assay, HepG2 cells stably expressing pCYP1A1 luciferase (AZ-AHR); type: cell-based; conditions: AZ-AHR cells, 10 µM, fold vs DMSO
Only the number, expressed in fold, is required.

Guide cases for FOLD INDUCTION (AZ-AHR luciferase), answers given:
OC(c1ccncc1)(c1cc2ccccc2[nH]1)c1cc2ccccc2[nH]1 [FKK2]: 467.5
O=S(=O)(c1ccccc1)n1c(C(O)c2ccncc2)cc2ccccc21 (racemic) [FKK1]: 2.8
CC#CC(O)(c1ccncc1)c1cc2ccccc2n1S(=O)(=O)c1ccccc1 (racemic) [FKK3]: 5.3
O=S(=O)(c1ccccc1)n1c(C(O)(Cc2cc3ccccc3[nH]2)c2ccncc2)cc2ccccc21 (racemic) [FKK7]: 75.5
CC#CC(O)(c1ccncc1)c1cc2ccccc2n1COCC (centres unmarked) [FKK4]: 7.1

Fill blank: measured FOLD INDUCTION (AZ-AHR luciferase) of the compound CCOCn1c(C(O)(Cc2cc3ccccc3[nH]2)c2ccncc2)cc2ccccc21 (racemic) [FKK9] is ____.
584.9

Can you share its FOLD INDUCTION (AZ-AHR luciferase)? I mean this compound: O=S(=O)(c1ccccc1)n1c(C(O)Cc2cc3ccccc3[nH]2)cc2ccccc21 (racemic) [FKK8]
40.8

Which FOLD INDUCTION (AZ-AHR luciferase) value belongs to OC(Cc1cc2ccccc2[nH]1)(c1ccncc1)c1cc2ccccc2[nH]1 (centres unmarked) [FKK10] ?
21.9

====

target: AhR (Homo sapiens); construct: endogenous in cells; host or cells: AZ-AHR (HepG2); assay: AhR reporter assay, HepG2 cells stably expressing pCYP1A1 luciferase (AZ-AHR); assay type: cell-based; conditions: AZ-AHR cells, 100 nM, fold vs DMSO
// reported FOLD INDUCTION (AZ-AHR luciferase) per item
# value in fold; strip the unit string

O=S(=O)(c1ccccc1)n1c(C(O)Cc2cc3ccccc3[nH]2)cc2ccccc21 (racemic) [FKK8]: 1.1
CC#CC(O)(c1ccncc1)c1cc2ccccc2n1COCC (stereo not drawn) [FKK4]: 0.8

Consider the record given below.
Report FOLD INDUCTION (AZ-AHR luciferase) for CC#CC(O)(c1ccncc1)c1cc2ccccc2n1S(=O)(=O)c1ccccc1 (racemic) [FKK3] tested on AhR (Homo sapiens).
0.9

====

# aver (mean luciferase signal of H1-H4) listing for each entry below
molecular target: PXR (Homo sapiens); assay: PXR reporter (p3A4-luc luciferase) assay in LS180 cells transiently transfected with wild-type PXR; settings: 10 uM
Number, no unit, nothing else.

CCOCn1c(C(O)(Cc2cc3ccccc3[nH]2)c2ccncc2)cc2ccccc21 (racemic): 98175.8
O=S(=O)(c1ccccc1)n1c(C(O)Cc2cc3ccccc3[nH]2)cc2ccccc21 (racemic): 99864.5

# context switch: different compound, same aver (mean luciferase signal of H1-H4)
Looking for the measured aver (mean luciferase signal of H1-H4) of CC#CC(O)(c1ccncc1)c1cc2ccccc2n1COCC (stereo not drawn) , can you help?
102793.8
